// data source = ChEMBL document CHEMBL1145020

Tested on: SW-620
assay summary: Concentration required to inhibit growth of human carcinoma colon (SW620) cell line
Type: functional, cell-based
I'd appreciate it if you could supply pIC50 values for the items below.
Answers are plain numbers, as −log10 of the molar value.

State the recorded pIC50 for every item in the following list.
1. COc1cc2ncc(C#N)c(Nc3ccc(F)c(Cl)c3)c2cc1NC(=O)/C=C/C(C)N1CCOCC1 (centres undefined)
2. CCOc1cc2ncc(C#N)c(Nc3cccc(Br)c3)c2cc1NC(=O)/C=C/CN1CCOCC1

1: 5.31; 2: 5.54

----------
target entity: Receptor tyrosine-protein kinase erbB-2 (Homo sapiens)
Sequence (P04626 whole entry): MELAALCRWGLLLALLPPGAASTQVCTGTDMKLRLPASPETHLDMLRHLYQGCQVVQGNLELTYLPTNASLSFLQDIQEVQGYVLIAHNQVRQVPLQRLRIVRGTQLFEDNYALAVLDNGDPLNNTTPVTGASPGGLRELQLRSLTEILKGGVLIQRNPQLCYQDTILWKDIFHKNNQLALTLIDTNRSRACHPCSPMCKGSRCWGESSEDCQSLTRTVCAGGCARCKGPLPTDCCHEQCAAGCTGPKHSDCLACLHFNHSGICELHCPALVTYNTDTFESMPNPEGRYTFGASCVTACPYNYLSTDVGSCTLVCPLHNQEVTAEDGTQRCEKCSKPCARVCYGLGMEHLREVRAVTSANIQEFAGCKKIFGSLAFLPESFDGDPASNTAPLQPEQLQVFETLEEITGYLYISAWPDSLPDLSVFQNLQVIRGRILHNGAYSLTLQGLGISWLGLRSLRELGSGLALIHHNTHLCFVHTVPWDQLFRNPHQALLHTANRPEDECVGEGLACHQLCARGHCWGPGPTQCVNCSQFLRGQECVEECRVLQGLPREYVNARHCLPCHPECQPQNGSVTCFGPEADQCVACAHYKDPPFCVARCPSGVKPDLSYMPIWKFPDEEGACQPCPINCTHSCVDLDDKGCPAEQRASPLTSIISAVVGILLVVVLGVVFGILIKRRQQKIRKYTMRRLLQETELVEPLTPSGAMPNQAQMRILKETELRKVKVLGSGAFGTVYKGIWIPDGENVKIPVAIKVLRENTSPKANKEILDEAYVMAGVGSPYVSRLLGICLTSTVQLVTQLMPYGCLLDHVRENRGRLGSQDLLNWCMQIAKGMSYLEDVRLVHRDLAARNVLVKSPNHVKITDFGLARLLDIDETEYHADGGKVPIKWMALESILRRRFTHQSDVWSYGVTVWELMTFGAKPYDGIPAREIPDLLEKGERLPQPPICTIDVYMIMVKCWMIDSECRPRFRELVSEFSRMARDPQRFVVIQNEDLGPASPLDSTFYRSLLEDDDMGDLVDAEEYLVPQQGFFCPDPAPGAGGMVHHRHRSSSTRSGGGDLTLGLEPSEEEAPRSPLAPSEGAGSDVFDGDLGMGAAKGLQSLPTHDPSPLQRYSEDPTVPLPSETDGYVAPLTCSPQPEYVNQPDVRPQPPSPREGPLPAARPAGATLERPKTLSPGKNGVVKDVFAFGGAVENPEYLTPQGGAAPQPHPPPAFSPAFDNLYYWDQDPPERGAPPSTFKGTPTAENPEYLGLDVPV
I'd appreciate it if you could supply log10 of IC50 values for the items below.
Hi team, quick reminder: these entries are log10 of IC50 (µM).

CCN(CC)C/C=C/C(=O)Nc1cc2c(Nc3ccc(F)c(Cl)c3)c(C#N)cnc2cc1OC    0.89
COc1cc(NC(=O)/C=C/CN2CCOCC2)cc2c(Nc3cccc(Br)c3)c(C#N)cnc12    1.37

State the recorded log10 of IC50 for every item in the following list.
1. COc1cc2ncc(C#N)c(Nc3ccc(F)c(Cl)c3)c2cc1NC(=O)/C=C/CN(C)C
2. COCC#CC(=O)Nc1ccc2ncc(C#N)c(Nc3cccc(Br)c3)c2c1
3. COc1cc2ncc(C#N)c(Nc3cccc(Br)c3)c2cc1NC(=O)/C=C/CN1CCOCC1
4. C=C(CN1CCOCC1)C(=O)Nc1ccc2ncc(C#N)c(Nc3ccc(F)c(Cl)c3)c2c1
5. N#Cc1cnc2ccc(NC(=O)C#CCN3CCSCC3)cc2c1Nc1cccc(Br)c1
6. COc1cc(NC(=O)/C=C/CN(C)C)cc2c(Nc3cccc(Br)c3)c(C#N)cnc12

0.65
-0.52
1.53
0.64
0.02
0.97

State the recorded log10 of IC50 for every item in the following list.
1. CC#CC(=O)Nc1cc2c(Nc3cccc(Br)c3)c(C#N)cnc2cc1OC
2. N#Cc1cnc2ccc(NC(=O)/C=C/CN3CCOCC3)cc2c1Nc1ccc(F)c(Cl)c1

1: 0.33; 2: 0.94

----------
System: SW-620
assay summary: Concentration required to inhibit growth of human carcinoma colon (SW620) cell line
Assay type: functional, cell-based
result type: pIC50
Give bare numbers, as −log10 of the molar value.

Worked cases, pIC50 given:
COCCOCC#CC(=O)Nc1ccc2ncc(C#N)c(Nc3cccc(Br)c3)c2c1    6.47
N#Cc1cnc2ccc(NC(=O)C#CCN3CCSCC3)cc2c1Nc1cccc(Br)c1    6.46

Suppose we examine the compound CN(C)C/C=C/C(=O)Nc1ccc2ncc(C#N)c(Nc3cccc(Br)c3)c2c1 ; what pIC50 value has been reported? 5.26

----------
Test system: SW-620
assay summary: Concentration required to inhibit growth of human carcinoma colon (SW620) cell line
Type: functional, cell-based
Hi! Could you tag entries with IC50 below 1 µM as T, and those at or above as F? Much appreciated.

CCCN(CC#CC(=O)Nc1ccc2ncc(C#N)c(Nc3cccc(Br)c3)c2c1)CCC    T
C=C(CN(C)C)C(=O)Nc1cc2c(Nc3ccc(F)c(Cl)c3)c(C#N)cnc2cc1OCC    T
COc1cc(NC(=O)/C=C/CN2CCOCC2)cc2c(Nc3cccc(Br)c3)c(C#N)cnc12    F

Please let me know if C/C=C/C(=O)Nc1ccc2ncc(C#N)c(Nc3cccc(Br)c3)c2c1 shows IC50 below 1 µM. F

// repeat for COc1cc(NC(=O)/C=C/CN(C)C)cc2c(Nc3cccc(Br)c3)c(C#N)cnc12 and report F

// repeat for CC(C)N(CC#CC(=O)Nc1ccc2ncc(C#N)c(Nc3cccc(Br)c3)c2c1)C(C)C and report T

// repeat for C=C(CN1CCOCC1)C(=O)Nc1ccc2ncc(C#N)c(Nc3ccc(F)c(Cl)c3)c2c1 and report T

// repeat for CC#CC(=O)Nc1cc2c(Nc3cccc(Br)c3)c(C#N)cnc2cc1OC and report F

// repeat for CC#CC(=O)Nc1ccc2ncc(C#N)c(Nc3cccc(Br)c3)c2c1 and report F

// repeat for CN(C)C/C=C/C(=O)Nc1ccc2ncc(C#N)c(Nc3ccc(F)c(Cl)c3)c2c1 and report T

// repeat for COc1cc2ncc(C#N)c(Nc3cccc(Br)c3)c2cc1NC(=O)/C=C/CN1CCOCC1 and report F

// repeat for C=CC(=O)Nc1cc2c(Nc3cccc(Br)c3)c(C#N)cnc2cc1OC and report F

// repeat for COc1cc2ncc(C#N)c(Nc3ccc(F)c(Cl)c3)c2cc1NC(=O)/C=C/CN(C)C and report T
